# System: Entamoeba histolytica
# protocol: Antiamoebic activity against trophozoite stage of Entamoeba histolytica HM-1:IMSS after 72 hrs by microdilution method
# Type: functional, organism-based
Each entry below carries its reported log10 of IC50.
Heads up, the numbers here are log10 of IC50 in µM units.

Some compounds with known log10 of IC50 results, for comparison:
{"columns": ["chemical_string", "study_target", "log10 of IC50"],
 "data": [
  ["Cc1ncc([N+](=O)[O-])n1CCOc1ccc(/C=N/NC(=O)c2ccc(Cl)cc2)cc1", "Entamoeba histolytica", -0.70],
  ["Cc1ncc([N+](=O)[O-])n1CCOc1ccc(C=O)cc1", "Entamoeba histolytica", 1.06],
  ["COc1ccc(C(=O)N/N=C/c2ccc(OCCn3c([N+](=O)[O-])cnc3C)cc2)cc1", "Entamoeba histolytica", 0.85],
  ["COc1cc(OC)cc(C(=O)N/N=C/c2ccc(OCCn3c([N+](=O)[O-])cnc3C)cc2)c1", "Entamoeba histolytica", 0.64],
  ["Cc1ncc([N+](=O)[O-])n1CCOc1ccc(/C=N/NC(=O)c2ccc(O)cc2)cc1", "Entamoeba histolytica", -0.42]
]}

Prompt: Would you kindly share the measured log10 of IC50 for Cc1cc(C)cc(C(=O)N/N=C/c2ccc(OCCn3c([N+](=O)[O-])cnc3C)cc2)c1 ?
Completion: 0.78

Prompt: Another compound to check: Cc1ncc([N+](=O)[O-])n1CCOc1ccc(/C=N/NC(=O)c2cc(O)cc(O)c2)cc1
Completion: -0.43

Prompt: Another compound to check: Cc1ncc([N+](=O)[O-])n1CCOc1ccc(/C=N/NC(=O)c2ccc(C(C)(C)C)cc2)cc1
Completion: 0.30
